# Target System: recombinant Mcl-1 (residues 172-327) (Homo sapiens (Human))
# Sequence (Q07820 172-327): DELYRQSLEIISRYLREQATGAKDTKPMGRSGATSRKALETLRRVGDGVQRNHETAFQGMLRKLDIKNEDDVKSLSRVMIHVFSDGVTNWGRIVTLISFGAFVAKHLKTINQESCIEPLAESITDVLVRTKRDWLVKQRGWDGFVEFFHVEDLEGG
# Method Summary: Fluorescence polarization anisotropy competition assay (FITC-Bak or FITC-Bim BH3 peptide) with Mcl-1
# Type: binding
# Condition Label: Table 2; Ki bins given in nM; FITC-Bak or FITC-Bim peptide competition; Ki converted from IC50; read-out: Ki for Inhibition of Mcl-1
Measured Property: Ki

Worked examples follow.
> print(dat)
                                   compound   result
1  Cc1cc(OCCCc2c3n(c4c(-c5c(C)nn(C)c5C)c(Cl)ccc24)CCCN(c2cc(C(=O)O)cc4c2OCCO4)C3=O)cc(C)c1Cl [I-364]  < 50 nM
2  Cc1cc(OCCCc2c3n(c4c(-c5c(C)nn(C)c5C)c(Cl)ccc24)CCCN(Cc2cc(Br)cc(C(=O)O)c2)C3=O)cc(C)c1Cl [I-299]  < 50 nM
3  Cc1cc(OCCCc2c(C(=O)NC[C@H]3CC[C@H](C(=O)O)CC3)[nH]c3c(-c4c(C)nn(C)c4C)c(Cl)ccc23)cc(C)c1Cl [I-324]  < 50 nM
4  Cc1cc(OCCCc2c(C(=O)N[C@@H]3CCN(C(=O)C(=O)O)C3)[nH]c3c(-c4c(C)nn(C)c4C)c(Cl)ccc23)cc(C)c1Cl [I-326]  < 50 nM
5  Cc1cc(OCCCc2c(C(=O)NCc3cc(C(=O)O)c(CN4CCc5ccccc5C4)o3)[nH]c3c(-c4c(C)nn(C)c4C)cccc23)cc(C)c1Cl [I-293]  < 50 nM

The following compounds each have a reported value; give each one's Ki.
1. Cc1cc(OCCCc2c(C(=O)N3CCc4ccc(C(=O)O)cc43)[nH]c3c(-c4c(C)nn(C)c4C)c(Cl)ccc23)cc(C)c1Cl [I-192]
2. Cc1cc(OCCCc2c3n(c4c(-c5c(C)nn(C)c5C)c(Cl)ccc24)CCCN(c2ccc(C(=O)O)c(C(F)(F)F)c2)C3=O)cc(C)c1Cl [I-93]
3. Cc1cc(OCCCc2c(C(=O)NCCC(=O)NS(=O)(=O)c3cccc([N+](=O)[O-])c3)[nH]c3ccccc23)cc(C)c1Cl [I-21]
4. Cc1cc(OCCCc2c3n(c4c(-c5c(C)nn(C)c5C)c(Cl)ccc24)CCCN(Cc2ccc(C(=O)O)cn2)C3=O)cc(C)c1Cl [I-102]

Outgoing:
1. < 50 nM
2. < 50 nM
3. 101 to 299 nM
4. < 50 nM

The following compounds each have a reported value; give each one's Ki.
1. Cc1cc(C(=O)O)cc(N2CCCn3c(c(CCCOc4cc(C)c(Cl)c(C)c4)c4ccc(Cl)c(-c5c(C)nn(C)c5C)c43)C2=O)c1 [I-220]
2. Cc1cc(OCCCc2c3n(c4c(-c5c(C)nn(C)c5C)c(Cl)ccc24)[C@H](C)CN(c2cccc(C(=O)O)c2)C3=O)cc(C)c1Cl [I-171]
3. Cc1cc(OCCCc2c(C(=O)Nc3cc(C(=O)O)cc(N4CCN(C)CC4)c3)[nH]c3c(-c4c(C)nn(C)c4C)c(Cl)ccc23)cc(C)c1Cl [I-207]
4. Cc1cc(OCCCc2c3n(c4c(-c5c(C)nn(C)c5C)c(Cl)ccc24)C[C@@H](C)N(Cc2ccc(C(=O)O)cc2)C3=O)cc(C)c1Cl [I-120]
5. Cc1ccc(N2CCCn3c(c(CCCOc4cc(C)c(Cl)c(C)c4)c4ccc(Cl)c(-c5c(C)nn(C)c5C)c43)C2=O)cc1C(=O)O [I-98]
6. Cc1cc(OCCCc2c(C(=O)N3CCN(c4ccc(C(=O)O)cc4)CC3)n(Cc3cccnc3)c3c(-c4c(C)nn(C)c4C)c(Cl)ccc23)cc(C)c1Cl [I-338]
7. Cc1cc(OCCCc2c(C(=O)NCCS(=O)(=O)NC(=O)C34CC5CC(CC(C5)C3)C4)[nH]c3ccccc23)cc(C)c1Cl [I-55]

Outgoing:
< 50 nM
< 50 nM
< 50 nM
< 50 nM
< 50 nM
< 50 nM
301 to 500 nM

The following compounds each have a reported value; give each one's Ki.
1. Cc1cc(OCCCc2c(C(=O)NCC(=O)NCC(=O)O)[nH]c3c(-c4c(C)nn(C)c4C)cccc23)cc(C)c1Cl [I-290]
2. Cc1cc(OCCCc2c3n(c4c(-c5c(C)nn(C)c5C)cccc24)CCCN(Cc2ccc(N4CCCC4)c(C(=O)O)c2)C3=O)cc(C)c1Cl [I-78]
3. Cc1cc(OCCCc2c3n(c4c(-c5c(C)nn(C)c5C)c(Cl)ccc24)C(C)[C@@H](C)NC3=O)cc(C)c1Cl (stereo partly shown) [I-119]
4. Cc1cc(OCCCc2c3n(c4c(-c5c(C)nn(C)c5C)c(Cl)ccc24)CCCN(Cc2cc(CCNC(=O)CC(C)C)cc(C(=O)O)c2)C3=O)cc(C)c1Cl [I-307]
5. Cc1cc(OCCCc2c3n(c4c(-c5c(C)nn(C)c5C)c(Cl)ccc24)CCCN(c2cc(C(=O)O)cc(-c4cccn4C)c2)C3=O)cc(C)c1Cl [I-235]
6. Cc1cc(OCCCc2c3n(c4c(-c5c(C)nn(C)c5C)c(Cl)ccc24)C(C)CN(Cc2ccc(C(=O)O)cn2)C3=O)cc(C)c1Cl (stereo not shown) [I-129]

Outgoing:
1. < 50 nM
2. 101 to 299 nM
3. 101 to 299 nM
4. < 50 nM
5. < 50 nM
6. < 50 nM

The following compounds each have a reported value; give each one's Ki.
1. Cc1cc(OCCCc2c3n(c4c(-c5c(C)nn(C)c5C)c(Cl)ccc24)CCCN(c2cc(Cl)cc(C(=O)O)c2)C3=O)cc(C)c1Cl [I-221]
2. Cc1cc(OCCCc2c3n(c4c(-c5c(C)nn(C)c5C)c(Cl)ccc24)CCCN(c2cc(Br)cc(C(=O)O)c2)C3=O)cc(C)c1Cl [I-218]
3. Cc1cc(OCCCc2c3n(c4c(-c5c(C)nn(C)c5C)c(Cl)ccc24)CCCN(Cc2cc(C(=O)O)cc(-c4ccc(O)cc4)c2)C3=O)cc(C)c1Cl [I-306]

Outgoing:
1. < 50 nM
2. < 50 nM
3. < 50 nM
